assay: MALDI-TOF MS of 33-mer fragments in plasma and pancreas after oral administration; details: mice 6–20 weeks, 500–900 μg 33-mer p.o., plasma and pancreas 45–60 min after administration, sequence assigned by mass match
METRIC_NAME: Sample in which the 33-mer fragment was found

The examples below pair each entry with its known result.
[
  {
    "SUBSTANCE": "ELPYPQPQPF",
    "RESULT": "Plasma, NOD"
  },
  {
    "SUBSTANCE": "LQLQPFPQPELPYPQPELPYPQPELPYP",
    "RESULT": "Plasma, NOD, C57BL/6"
  },
  {
    "SUBSTANCE": "ELPYPQPELPYPQ",
    "RESULT": "Plasma, NOD"
  },
  {
    "SUBSTANCE": "LQPFPQPELPYPQPELPYPQPELPYPQPQ",
    "RESULT": "Plasma, NOD, C57BL/6"
  },
  {
    "SUBSTANCE": "QLQPFPQPEL",
    "RESULT": "Pancreas, C57BL/6"
  }
]

Form field: reported Sample in which the 33-mer fragment was found of YPQPELPYPQPQPF Plasma, NOD, C57BL/6

The measured values listed here are drawn from paper PMC5067331.
